outcome measure: melting point

Please fill in: melting point reported for CN1CCCC(c2nc(-c3ccncc3)c(-c3ccc(F)cc3)[nH]2)C1 (stereo unspecified) = 195 to 197 °C

----------
outcome measure: melting point

Observe how each entry below is paired with its result.
1. CC(C)(C)c1cc(C[Si](C)(C)C)cc(C(C)(C)C)c1S = 100 to 101 °C
2. CCOC(=O)c1ccc(OCC(O)COc2cccc3oc(C(=O)OCC)cc(=O)c23)cc1 (stereo not given) = 134 to 135 °C
3. CC(=O)Nc1ccc(C#N)c(F)c1F = 175 to 177 °C

Sure, the documented melting point for N#Cc1cc(-c2ccoc2)c2ccc(COc3cc(F)cc(-c4ccc(Cl)cc4Cl)c3)cc2n1 is 188 to 190 °C

# melting point of CCOc1ccc(-c2ccc(C3COC(c4c(Cl)cncc4Cl)=N3)cc2)cc1 (stereo not given) = 121 to 122 °C

molecule CCCCCCCCCCCCc1nnn(C(CCCCC)C(=O)Nc2c(OC)cc(OC)cc2OC)n1 (stereo not given) , melting point observed: 152 to 155 °C

Item: CSc1ccc(CC(=O)O)cc1Cl | melting point: 106 to 108 °C

The value of melting point measured for the molecule CC(C)C1(C)N=C(c2nc3sccc3cc2C(=O)O)NC1=O (stereo not given) turned out to be 221 to 223 °C

Form field melting point, entry CCOc1ccc(S(=O)(=O)Cl)cc1C(=O)O : 108 to 110 °C

response.value for CCCCCC(CC(=O)Nc1cc(C(N)=O)ccc1C(C)(C)C)c1cc(F)c(OC)cc1OC (stereo not given) (field: melting point) = 150 °C
